Assay: Solubility of compound in PBS at pH 7 by LCMS/MS analysis
Assay type: physicochemical
List of solubility values.
Give the value in µM but do not write µM after it.

INSERT INTO assay_data (compound, recorded_value) VALUES
  ('CC(C)(/C=C(/C#N)C(=O)N1CCC[C@@H]1Cn1nc(-c2ccc(Oc3ccccc3)cc2F)c2c(N)ncnc21)N1CCOCC1', 215),
  ('CN1CCN(C(C)(C)/C=C(\C#N)C(=O)N2CCC[C@@H](n3nc(-c4ccc(Oc5ccccc5)cc4F)c4c(N)ncnc43)C2)CC1=O', 90),
  ('CC(=O)N1CCN(C(C)(C)/C=C(\C#N)C(=O)N2CCC[C@@H](n3nc(-c4ccc(Oc5ccccc5)cc4F)c4c(N)ncnc43)C2)CC1', 31);

Problem: What solubility value was documented for this compound, CC(C)(C)/C=C(\C#N)C(=O)N1CCC[C@@H](n2nc(-c3ccc(Oc4ccccc4)cc3F)c3c(N)ncnc32)C1 [ATUZABRUTINIB] ?
Solution: 2.1
